Values compiled from patent US20250367129A1.

What PDI was measured for each of the following?
# assay.name: LNP size and polydispersity index by Malvern Zetasizer dynamic light scattering (CA HA modFlu mRNA LNPs)
# Assay type: physicochemical
# experimental.context: LNP with CA HA modFlu mRNA; DLS
Write the value as a bare number.

Would you kindly share the measured PDI for CCCCCCCC(CCCCCCC)C(=O)O[C@@H]1CC2(CCN(CCCCCO)CC2)C[C@H]1OC(=O)C(CCCCCCC)CCCCCCC (racemic) ? 0.063

Would you kindly share the measured PDI for CCCCC(CCCC)C(CCCC)CCC(=O)OCC(COC(=O)CCC(CCCC)C(CCCC)CCCC)N1CCC2(CCN(CCCCO)CC2)CC1 (stereo not drawn) ? 0.100

Would you kindly share the measured PDI for CCCCCCCC(CCCCCCC)C(=O)O[C@@H]1CC2(CCN(CCCCO)CC2)C[C@H]1OC(=O)C(CCCCCCC)CCCCCCC (racemic) [Example 51] ? 0.030

====

# assay.name: LNP size and polydispersity index by Malvern Zetasizer dynamic light scattering (CA HA modFlu mRNA LNPs)
# Assay type: physicochemical
# experimental.context: LNP with CA HA modFlu mRNA; DLS
What PDI was measured for each of the following?
Write the value as a bare number.

Would you kindly share the measured PDI for CCCCCCCCC(CC1CC=CC1)C(=O)OCC(COC(=O)C(CCCCCCCC)CC1CC=CC1)N1CCC2(CCN(CCCCO)CC2)CC1 (stereo not shown) [Example 35] ? 0.040

Would you kindly share the measured PDI for CCCCCCCCC(CCCCCC)C(=O)OCC(COC(=O)C(CCCCCC)CCCCCCCC)N1CCC2(CCN(CCCCCO)C2)C1 (stereo not shown) [Example 16] ? 0.090

Would you kindly share the measured PDI for CCCCCCCC(CCCCCCC)C(=O)OCCC(CCOC(=O)C(CCCCCCC)CCCCCCC)N1CCC2(CCN(CCCCO)CC2)CC1 [Example 47] ? 0.080

Would you kindly share the measured PDI for CCCCCCCC(CCCCCCC)C(=O)OCC(COC(=O)C(CCCCCCC)CCCCCCC)N1CCC2(CCN(CCCCCO)C2)CC1 [Example 48] ? 0.093

Would you kindly share the measured PDI for CCCCCCCC(CCCCCCC)OC(=O)CCC(=O)O[C@@H]1CC2(CCN(CCCCO)CC2)C[C@H]1OC(=O)CCC(=O)OC(CCCCCCC)CCCCCCC (racemic) [Example 62] ? 0.090

Would you kindly share the measured PDI for CCCCCCCC(CCCCCCC)C(=O)OCC(COC(=O)C(CCCCCCC)CCCCCCC)C1CCC2(CC1)CCN(CCCCO)CC2 [Example 2] ? 0.040

Would you kindly share the measured PDI for CCCCCCCCC(CCCCCC)C(=O)OCC(COC(=O)C(CCCCCC)CCCCCCCC)N1CCC2(CCN(CCCCO)CC2)CC1 (stereo not shown) [Example 23] ? 0.090

Would you kindly share the measured PDI for CCCCCCCCC(CCCCCC)C(=O)OCC(COC(=O)C(CCCCCC)CCCCCCCC)N1CCC2(CCN(CCCCCO)C2)CC1 (stereo not shown) [Example 17] ? 0.053

Would you kindly share the measured PDI for CCCCCCCCC(CCCCCCC)C(=O)O[C@@H]1CC2(CCN(CCCCO)CC2)C[C@H]1OC(=O)C(CCCCCCC)CCCCCCCC (mixture of isomers) [Example 66] ? 0.146

Would you kindly share the measured PDI for CCCCCCCC(CCCCCCC)C(=O)OCC1(COC(=O)C(CCCCCCC)CCCCCCC)CCC2(CCN(CCCCO)CC2)CC1 [Example 1] ? 0.050

Would you kindly share the measured PDI for CCCCCCCCC(CCCCCC)C(=O)OCCCC(COC(=O)C(CCCCCC)CCCCCCCC)N1CCC2(CCN(CCCCO)CC2)CC1 (stereo not shown) [Example 19] ? 0.140

Would you kindly share the measured PDI for CCCCCCCCC(C(=O)OCC(COC(=O)C(CCCCCCCC)C1CCC1)N1CCC2(CCN(CCCCO)CC2)CC1)C1CCC1 (stereo not shown) [Example 4] ? 0.170

Would you kindly share the measured PDI for CCCCCCCCC(CCCCCC)C(=O)O[C@@H]1CC2(CCN(CCCCO)CC2)C[C@H]1OC(=O)C(CC)CCCCCCC (mixture of isomers) [Example 70] ? 0.110
